Field: fluorescence intensity in solution (S) after antigen binding. Provide a value for each of the binders that follow.
# Tgt: T1, Anti-CRP antibody(r)
# T1 construct: also called rabbit IgG (CRP)
# Experiment: labelled peptide on antibody immobilised on microplate; antigen CRP
Ends that are not written are not given here. FAM = carboxyfluorescein (FAM) fluorescent label
Write the value as a bare number.

Q. Which fluorescence intensity in solution (S) after antigen binding reading was recorded for the binder TYLEWYPQKPGQSPKLLIYK (not fully specified (N-terminus), Synthetic 20-mer homologous to the FR2 region of the light chain; The label differs between experiments; also called L1 switching peptide; first peptide compound L1) [L1 peptide] ?
A. 6500

Q. Which fluorescence intensity in solution (S) after antigen binding reading was recorded for the binder SYWIHWVKQRPGQGLEWIGE (not fully specified (N-terminus), Synthetic 20-mer homologous to the FR2 region of the heavy chain; The fluorescent label differs between experiments; also called H1 switching peptide; third peptide compound H1) [H1 peptide] ?
A. 5660

Q. Which fluorescence intensity in solution (S) after antigen binding reading was recorded for the binder VYYCAREPTGTGIYFDVWGK (not fully specified (N-terminus), Synthetic 20-mer homologous to the FR3 or FR4 region of the heavy chain; The label differs between experiments; also called H2 switching peptide; fourth peptide compound H2) [H2 peptide] ?
A. 16300

Q. Which fluorescence intensity in solution (S) after antigen binding reading was recorded for the binder {FAM}-VYYCFQGSHVPFTK (Synthetic 14-mer homologous to the FR3 or FR4 region of the light chain; also called L2 switching peptide; second peptide compound L2) [L2 peptide] ?
A. 32200
